experiment: Solubility of Compound A in several test solutions; format: physicochemical; conditions: jp-2 solution; JP-2 Sol., 6 hours, final pH 6.84
quantity_measured: solubility at 6 h (µg/mL)
Hi! Could you send only the number? It should be in µg/mL, unit omitted.

Ask: Entry under review: CC1(C)[C@H]2C[C@H](C/C=C\CCCC(=O)O)[C@@H](NC(=O)c3csc4ccc(O)cc34)[C@@H]1C2 . Reported solubility at 6 h?
Reply: 81.7

---

assay: Solubility of Compound A in several test solutions; assay type: physicochemical; conditions: ph 7.8 test solution; pH7.8, 3 hours, final pH 7.6
quantity_measured: solubility at 3 h (µg/mL)
Hi! Could you send only the number? It should be in µg/mL, unit omitted.

Ask: Entry under review: CC1(C)[C@H]2C[C@H](C/C=C\CCCC(=O)O)[C@@H](NC(=O)c3csc4ccc(O)cc34)[C@@H]1C2 . Reported solubility at 3 h?
Reply: 488
